Tested on: SN12C renal
Assay: NCI-60 one-dose screen, 48 h
Details: 10 µM unless noted
The panel holds about 83,000 compounds, 20% with a hit somewhere; the sample as a whole holds those more often. Active and inactive are the calls of the source. How the source made its calls: active means growth percent below 10; inactive means the rest.
Possible outcomes: active, inactive

>  <molecule>
O=C1c2cc3c(cc2-c2c1c1ccc(Cl)cc1c(=O)n2C[C@H](O)CO)OCO3

>  <category>
inactive

$$$$
>  <molecule>
CCN(CC)c1ccc(/C=N/NC(=O)c2ccc(Nc3ccnc(C(F)(F)F)c3)cc2)c(O)c1

>  <category>
inactive

$$$$
>  <molecule>
O=c1oc2c(cnc3ccccc32)cc1-c1cccs1

>  <category>
inactive

$$$$
>  <molecule>
C[N+](C)(C/C=C/c1ccccc1)Cc1ccccc1

>  <category>
inactive

$$$$
>  <molecule>
Cc1ccc(-c2nc(C(Cl)Cl)nc3cc(C)nn23)cc1

>  <category>
inactive

$$$$
>  <molecule>
COc1ccc(C2C3=C(COC3=O)N(CCO)c3cc4c(cc32)OCCO4)cc1OC (stereo not drawn)

>  <category>
inactive

$$$$
>  <molecule>
CCOC(=O)c1ccc2c(c1)c1c(C)c3ccncc3c(C)c1n2C

>  <category>
active

$$$$
>  <molecule>
N#Cc1c(-c2ccccc2)c(C#N)c2c(C#N)c(N)nn2c1N

>  <category>
inactive

$$$$
>  <molecule>
COc1ccc(Cn2cc(C(=O)N=Nc3c(O)[nH]c4c(Cl)cccc34)nn2)cc1

>  <category>
inactive

$$$$
>  <molecule>
COc1cc(/C=N/Nc2ccccc2F)cc(OC)c1OC

>  <category>
inactive

$$$$
>  <molecule>
CCN(CC)c1ccc(/C=C\c2cc(C)c3cc(C)ccc3n2)cc1

>  <category>
inactive

$$$$
>  <molecule>
CN(C)Cc1ccc(C(=O)Nc2ccc3ncnc(Nc4ccc(Oc5cccc(F)c5)c(Cl)c4)c3c2)cc1

>  <category>
inactive

$$$$
>  <molecule>
CC1(C)O[C@H]2OC3CCC(=O)CC3(O)[C@H]2O1 (stereo partly drawn)

>  <category>
inactive

$$$$
>  <molecule>
CCC(C)Nc1ccc(NC(C)CC)cc1 (stereo not drawn)

>  <category>
inactive

$$$$
>  <molecule>
Cn1cc(/C=C2/C(=O)Nc3ccccc32)c2ccccc21

>  <category>
inactive

$$$$
>  <molecule>
COc1ccc(/C=C/C(=O)c2ccc(NC(=O)CSc3nnc(-c4cc(-c5ccccc5)nc5ccccc45)n3-c3ccccc3)cc2)cc1

>  <category>
inactive

$$$$
>  <molecule>
CC(C)CN1CC(C(=O)Nc2ccc3c(c2)-c2ccccc2C3)CC1=O (stereo not drawn)

>  <category>
inactive

$$$$
>  <molecule>
CCCCCCCCn1ccc2cc(NC(=O)Cn3cc(CN4CCN(CC)CC4)nn3)ccc21

>  <category>
inactive

$$$$

====

Reported values of growth for individual entries
Test system: HT29 colon
Experiment: NCI-60 one-dose screen, 48 h (100 = growth as untreated, 0 = no growth, -100 = all killed)
Settings: 10 µM unless noted
Compounds without any hit were thinned out: in the full panel of roughly 83,000, 20% have a hit.

>  <compound>
COc1ccc(-c2ccc(=O)oc2C#Cc2cc(OC)c(OC)c(OC)c2)cc1O

>  <tested on>
HT29 colon

>  <reading unit>
%

>  <growth>
-9.43

$$$$
>  <compound>
N#Cc1c(-c2ccccc2)cc(-c2ccccc2)n(CCCC(=O)NO)c1=O

>  <tested on>
HT29 colon

>  <reading unit>
%

>  <growth>
20.9

$$$$
>  <compound>
CC(C)(C)C(=O)/C=C/c1ccc([N+](=O)[O-])cc1

>  <tested on>
HT29 colon

>  <reading unit>
%

>  <growth>
50.2

$$$$
>  <compound>
C=C(C)[C@@H]1CC[C@]2(CO)CC[C@]3(C)[C@H](CC[C@@H]4[C@@]5(C)CCC(NCCc6ccc(O)cc6)C(C)(C)[C@@H]5CC[C@]43C)[C@@H]12 (some centres not stated)

>  <tested on>
HT29 colon

>  <reading unit>
%

>  <growth>
-87.9

$$$$
>  <compound>
COc1ccc(NC(=O)c2sc3nc4c(cc3c2N)CCCC4)cc1

>  <tested on>
HT29 colon

>  <reading unit>
%

>  <growth>
0.414

$$$$
>  <compound>
Cc1[nH]c(C(=O)Nc2cccc(OC3CCNCC3)c2)c(Cl)c1Cl

>  <tested on>
HT29 colon

>  <reading unit>
%

>  <growth>
-36.2

$$$$
>  <compound>
CCOC(=O)C1=C(C)N=C2SC=C(c3ccccc3)N2[C@H]1c1cn[nH]c1-c1ccc(Cl)cc1

>  <tested on>
HT29 colon

>  <reading unit>
%

>  <growth>
36.8

$$$$
>  <compound>
COc1cc(/C=C\c2cc(/C=C\c3ccc(O)c(OC)c3)n(C(=O)CNc3ccc(Cl)cc3)n2)ccc1O

>  <tested on>
HT29 colon

>  <reading unit>
%

>  <growth>
15.8

$$$$
>  <compound>
CC/C=C\C/C=C/C=C1/C(=O)C=C[C@@H]1C/C=C\CCCC(=O)OC

>  <tested on>
HT29 colon

>  <reading unit>
%

>  <growth>
2.21

$$$$
>  <compound>
CN1CCN(c2ccc3c(c2)nc(NNC(=O)c2cnccn2)c2cccn23)CC1

>  <tested on>
HT29 colon

>  <reading unit>
%

>  <growth>
28.6

$$$$
>  <compound>
O=S(=O)(c1ccccc1)N1CCCN(c2nc(-c3ccccc3)nc3nc(-c4ccccc4)oc23)CC1

>  <tested on>
HT29 colon

>  <reading unit>
%

>  <growth>
109

$$$$
>  <compound>
CCCCCCCCCCCCCCCCCCOc1ccccc1CC(=O)NCC[N+]1(C)CCOCC1

>  <tested on>
HT29 colon

>  <reading unit>
%

>  <growth>
29.8

$$$$

====

System: LOX IMVI melanoma
Test: NCI-60 one-dose screen, 48 h
Conditions: 10 µM unless noted
This is part of a sample that, as a whole, favours compounds with a hit. Of some 83,000 tested, about 20% had one in any assay. Active and inactive are the calls of the source. How the source made its calls: active means growth percent below 10; inactive means the rest.
Possible outcomes: active, inactive

>  <molecule>
CCOC(=O)C1=C(C)N=C2SC=C(c3ccccc3)N2[C@H]1c1cn[nH]c1-c1ccc(Cl)cc1

>  <category>
active

$$$$
>  <molecule>
COc1ccc(Cc2nnc(Nc3nc4ccccc4s3)s2)cc1

>  <category>
inactive

$$$$
>  <molecule>
COc1ccc(C2=CN3CC=CCC3CC2=O)cc1 (stereo not drawn)

>  <category>
inactive

$$$$
>  <molecule>
C[C@@H](CO)[C@@H]1CC[C@]2(C(=O)N3CCN(C)CC3)CC[C@]3(C)[C@H](CC[C@@H]4[C@@]5(C)CC[C@H](O)C(C)(C)[C@@H]5CC[C@]43C)[C@@H]12

>  <category>
inactive

$$$$
>  <molecule>
CN1CCCc2cc(/C=C3/SC(=S)N(CCc4ccc(O)cc4)C3=O)ccc21

>  <category>
inactive

$$$$
>  <molecule>
O=C(O)c1cn(C2CC2)c2cc(N3CCN(C(=O)N/N=C/c4ccccc4)CC3)c(F)cc2c1=O

>  <category>
inactive

$$$$
>  <molecule>
CCN(C(=O)N1CCN(c2cc3c(cc2F)c(=O)c(C(=O)O)cn3C2CC2)CC1)c1nc(-c2ccc(C)cc2)cs1

>  <category>
active

$$$$
>  <molecule>
COc1cccc(C(=O)OCC(O)C(=O)NC23CC4CC(CC(C4)C2)C3)c1 (stereo not drawn)

>  <category>
inactive

$$$$
>  <molecule>
CC(=O)Nc1c(Cl)cc(Cl)c2c1Cc1cc([N+](=O)[O-])ccc1-2

>  <category>
inactive

$$$$
>  <molecule>
O=C(/C=C\c1ccco1)/C=C/c1ccco1

>  <category>
inactive

$$$$
>  <molecule>
CO[C@H](C(=O)[C@@H](O)[C@@H](C)O)[C@@H]1Cc2cc3cc(O[C@H]4C[C@@H](O[C@H]5C[C@@H](O)[C@H](O)C(C)O5)[C@H](O)C(C)O4)c(C)c(O)c3c(O)c2C(=O)[C@H]1O[C@H]1C[C@@H](O[C@H]2C[C@@H](O[C@H]3C[C@@H](OC)[C@H](O)C(C)O3)[C@@H](O)C(C)O2)C(O)(O)C(C)O1 (stereo partly drawn)

>  <category>
active

$$$$
>  <molecule>
COc1cc(-c2nc3ccc(C)cc3[nH]2)ccc1OCC(=O)N=Nc1c(O)[nH]c2ccc(Cl)cc12

>  <category>
active

$$$$
>  <molecule>
CC(C)CCC[C@@H](C)C1CCC2C3CCC4=C/C(=N/OCCN(C)C)CC[C@]4(C)C3CC[C@@]21C (stereo partly drawn)

>  <category>
inactive

$$$$

====

System: SK-OV-3 ovarian
Assay: NCI-60 one-dose screen, 48 h (100 = growth as untreated, 0 = no growth, -100 = all killed)
Details: 10 µM unless noted
This is part of a sample that, as a whole, favours compounds with a hit. Of some 83,000 tested, about 20% had one in any assay.
Reported values of growth for individual entries

>  <compound>
COc1ccc(-c2oc(=O)ccc2-c2cc(OC)c(OC)c(OC)c2)cc1O

>  <growth, %>
28.3

$$$$
>  <compound>
COc1ccc2nc(SCC(=O)Nc3ccccc3C)[nH]c2c1

>  <growth, %>
105

$$$$
>  <compound>
O=C(Nc1nc(C(=O)N2CCN(C(c3ccccc3)c3ccccc3)CC2)cs1)c1ccc(NC2CCCCC2)c([N+](=O)[O-])c1

>  <growth, %>
89.8

$$$$
>  <compound>
CN1CCCc2cc(/C=C3/SC(=S)N(CCc4ccc(O)cc4)C3=O)ccc21

>  <growth, %>
111

$$$$
>  <compound>
O=C(CN1C(=O)NC2NC(=O)NC21)N/N=C/c1ccc(Cl)cc1Cl (stereo unspecified)

>  <growth, %>
102

$$$$
>  <compound>
CC1(C)O[C@H]2OC3CCC(=O)CC3(O)[C@H]2O1 (stereo partly specified)

>  <growth, %>
94.9

$$$$
